Measured Target: T1, 4H3414-bH
T1 chain: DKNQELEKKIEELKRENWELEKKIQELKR
Method: two-hybrid library CCNG1;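 also: natural log of median RNA to DNA barcode read ratio; higher means stronger binding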
Reported Property: interaction score

Consider the worked cases shown below.
>  <Binder>
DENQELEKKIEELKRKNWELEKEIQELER [4H1393-bH]

>  <interaction score>
1

$$$$
>  <Binder>
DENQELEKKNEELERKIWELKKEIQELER [4H1449-bH]

>  <interaction score>
-0.216

$$$$
>  <Binder>
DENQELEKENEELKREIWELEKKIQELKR [4H1222-bH]

>  <interaction score>
0.0236

$$$$
>  <Binder>
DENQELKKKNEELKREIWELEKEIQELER [4H1985-bH]

>  <interaction score>
-0.255

$$$$
>  <Binder>
DENQELKKKIEELEREIWELKKENQELKR [4H1804-bH]

>  <interaction score>
-0.0322

$$$$
>  <Binder>
DKNQELEKEIEELKRKIWELEKENQELKR [4H3172-bH]

>  <interaction score>
0.693

$$$$

P: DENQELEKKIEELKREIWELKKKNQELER [4H1359-bH]
Q: DKNQELEKEIEELERKNWELKKEIQELER [4H3129-bH]
R: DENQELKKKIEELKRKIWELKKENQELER [4H1899-bH]
S: DKNQELEKKIEELKRENWELEKKIQELKR [4H3414-bH]
T: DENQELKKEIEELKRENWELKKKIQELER [4H1629-bH]
Exercise: Could you please order the items by interaction score, going from the lowest number to the highest? Use the labels to give the ranking in the order requested.
Solution: T, P, R, S, Q
